# maps each entry to its cytotoxicity at 10 µM
assay: Toxicity liver stage against HepG2, at 10uM; format: cell-based; set-up: test concentration 10 uM, cell line HepG2-A16-CD81EGFP; details: human, HepG2-A16-CD81EGFP cells; read-out: INHIBITION
experimental_readout: cytotoxicity at 10 µM (%)

* COCCN1C[C@H]2CC[C@@]3(N=C(C)N(CC4CC4)C3=O)[C@H]2C1 | -7.5
* CCc1c(C)[nH]c(C(C)(N)CC)nc1=O (stereo not drawn) | -4.04
* Cc1ccn(CC(=O)NCCCOc2ccccc2F)c(=O)c1 | -5.79
* Cc1ccsc1CNc1ccccc1C(=O)N1CCNC(=O)C1 | -1.68
* COCCC(=O)N1C[C@@H](O)[C@H](N2CCN(c3ccccc3)CC2)C1 | 0.046
* CC(C)(C)n1ncc2c(=O)n(CC(=O)NCc3ccco3)cnc21 | -1.6
* O=C(NCCn1cccc1)C1CCC(=O)N(C2CCCC2)C1 (stereo not drawn) | 0.622
* Cc1nc(C(=O)N(C)CC2CC2)nn1-c1ccccc1C(C)C | 5.38
* Cc1ccc(N(C)CC(O)COCc2ccccc2)c(C)c1 (stereo not drawn) | 3.67
* CC(C)(O)CN1CCN(C(=O)c2cccn2Cc2ccncc2)CC1 | -2.59
* Cc1ccsc1C(=O)N1CC(C(=O)N2CCOCC2)C2(CCOCC2)C1 (stereo not drawn) | 1.47
* Cc1nn(C)c2cnn(Cc3ccc(C(=O)N4CCN(C)CC4)o3)c12 | 14.3
* CC(C)N(CCS(C)(=O)=O)Cc1csc(Cc2ccc(Cl)cc2)n1 | -40.6
* Cn1nc(CNC(=O)c2ccc(Cl)cc2)c2c1CCOC2 | 5.86
* O=c1cc(Cn2ccnc2)nc2n1CCCN(Cc1ccncc1)C2 | -0.559
* COCc1cc(N(C)Cc2cc(C(C)(C)C)n[nH]2)ncn1 | -1.15
* COc1ccc(CC(=O)N2CCCC2Cn2cc(C)cn2)c(OC)c1 (stereo not drawn) | -18
* CCC(C)N(Cc1ccncc1)Cc1ccccc1Cn1cccn1 (stereo not drawn) | -44.4
* Cc1ocnc1C(=O)N1CC[C@@H](O)[C@@H](O)[C@H](N2CCC(F)(F)CC2)C1 | 4.86
* Cn1cc(CNc2ccc(CCN3CCC(C(N)=O)CC3)cc2)cn1 | -6.21
* CN(Cc1cccnc1)[C@@H]1CN(C(=O)c2ccco2)[C@@H]2CCCO[C@H]12 | -108
* CS(=O)(=O)N1CCC(CNc2cc(Cl)ccc2C#N)CC1 | 14.9
* Cc1oc(C)c(C(=O)N2CCCN(c3nccs3)CC2)c1C | 1.53

----------
assay: Toxicity liver stage against HepG2, at 10uM; assay type: cell-based; set-up: test concentration 10 uM, cell line HepG2-A16-CD81EGFP; details: human, HepG2-A16-CD81EGFP cells; read-out: INHIBITION
experimental_readout: cytotoxicity at 10 µM (%)

* COc1ccc(-c2cc(C3=NC(=CN4CCN(C)CC4)NO3)[nH]n2)cc1 | -17.8
* COc1ccccc1CN(Cc1cccnc1)Cc1c[nH]c(C)n1 | 6.43
* c1ccc2[nH]c(C3CCN(Cc4nnc(C5CC5)o4)CC3)cc2c1 | 3.65
* CC(C)c1nnc2n1CCN(C(=O)c1ccc(N(C)C)nn1)C2 | -9.86
* CSc1ccc(NC(=O)Cn2cc(NC(C)=O)cn2)cc1 | 0.753
* CCc1ncc2c(n1)CN(Cc1cc(C)on1)CC2 | -16.7
* Cc1cc(C)n(-c2ccccc2NC(=O)NCCS(=O)(=O)CC(C)C)n1 | -3.92
* CCOC(=O)c1ccc(NC(=O)Cn2cc(I)cn2)cc1 | 2.96
* Cc1nc(C)c(C(=O)N2CCCC2(C)C(=O)NC2CCCC2)s1 (stereo unspecified) | -1.13
* O=C1CO[C@H]2CN(C3CCOCC3)C[C@H]2N1Cc1ccc(F)cc1 | -6.35
* Cc1cs/c(=N\C(=O)c2c3c(nc4onc(C)c24)CCC3)[nH]1 | 1.26

----------
Each entry below carries its reported cytotoxicity at 10 µM.
test: Toxicity liver stage against HepG2, at 10uM; assay type: cell-based; design: test concentration 10 uM, cell line HepG2-A16-CD81EGFP; details: human, HepG2-A16-CD81EGFP cells; read-out: INHIBITION
experimental_readout: cytotoxicity at 10 µM (%)

* Cc1ccc(C)c2c(O)cc(CN3CCC(c4nncn4C)CC3)nc12 | -2.24
* CN(C)CCN1C(=O)CCCC12CCCN(C(=O)c1ccncc1)C2 (stereo not drawn) | -1.31
* O=C(CCn1cc(Cl)cn1)N1CCN(CC2CC2)[C@@H]2CS(=O)(=O)C[C@@H]21 | 2.28
* CNC(=O)CN1CCCC12CCN(C(=O)c1ccoc1)CC2 | 6.53
* CCNc1nc2cn(-c3ccc(CC)cc3)c(=O)c-2c[nH]1 | -3.31
* COc1ccc(O[C@H]2COCCN(Cc3c[nH]c4ccccc34)C2)cc1 | 1.82
* COc1cc2c(cc1CNCc1cccnc1-n1cccn1)OC(C)C2 (stereo not drawn) | 4.6
* Cc1cc(C)nc(N2CCC(OCCN3CCCCC3)C2)n1 (stereo not drawn) | -53.6
* Cc1cc(Nc2ccc(F)cn2)cc(C2CCCN2)n1 (stereo not drawn) | 0.0453
* Cc1cc(C)nc(N2CCCC2c2[nH]ncc2C(=O)N(C)C)n1 (stereo not drawn) | -1.51
* CCCc1nnsc1C(=O)N1CCN(CC(O)c2ccco2)CC1 (stereo not drawn) | -7.86
* CCOc1cc(NC(=O)N2CCC3(CCOCC3)C2)ccc1C | 2.89
* Cc1cc(-c2nn3c(C)nnc3s2)n[nH]1 | 6.52
* CN(Cc1cscn1)C1CCN(C(=O)OC(C)(C)C)CC1 | -3.76
* CCOCC1CN(C(=O)c2cnoc2C)Cc2cn(CC3CC3)nc21 (stereo not drawn) | 17
* COCCC1(CNC(=O)Nc2ccc(-n3nccn3)cc2)CCC1 | -2.99
* CCNC(=O)[C@@H]1C[C@@H](NC(=O)c2ccc(C)s2)CN1Cc1ccccn1 | -3.73
* CCOC(=O)CSc1nnc([C@@H](N)C(C)C)o1 | 0.979
* COc1ccc2c(c1)CCCN(C(C)C(=O)NC(C)C)C2 (stereo not drawn) | 9.56
* Cn1nc2c(c1NC(=O)c1ccc(Cl)s1)CCC2 | -1.51
* O=C(NCC1CC1)[C@H]1C[C@H]2CN(C(=O)NCC3CCCCC3)C[C@@H]1O2 | 3.79
* CCC(NC(=O)c1cccc(N2CCCC2=O)c1)c1ccc(OC)cc1 (stereo not drawn) | -62.3
* O=C(NCc1cc2n(n1)CCCN(Cc1ccc(CO)o1)C2)C1CCC1 | 5.46
* CC(NCC1CCN(CCO)CC1)c1ccc(C(F)(F)F)cc1 (stereo not drawn) | -7.28
* Fc1cccc(-c2nc(CN3CCOC(Cn4cncn4)C3)co2)c1 (stereo not drawn) | -11.4
* CC(C)Nc1nc(-c2ccccc2)nc2c1CCN(C(=O)C1CC1)CC2 | -108
* CCCc1nc(CN(CC)C(=O)c2onc3ccccc23)no1 | 9.67
* CCn1ncc(-c2cc(C(F)(F)F)nc(N3CCC(N)CC3)n2)c1C | -6
* Nc1nnc(SCC(=O)c2cc3c(cc2Cl)NC(=O)C3)s1 | -0.139
* Cc1cc(C2CCCN(CCCS(N)(=O)=O)C2)n[nH]1 (stereo not drawn) | -20.1
* O=C(CCc1ccsc1)N1CCCC(n2cncn2)C1 (stereo not drawn) | -9.47
* CN(CC(F)(F)F)C(=O)COc1nc(Cc2ccc(F)cc2)no1 | 9.36
* Cc1ccnc(N2Cc3cnn(Cc4ccc(F)cc4)c3C2)n1 | 3.59
* O=c1c(S(=O)(=O)N2CCCCC2)cccn1Cc1cccnc1 | -2.56
* CCOc1cc(C(=O)N2CCN(C)CC2)cc2occc12 | 7
* O=C(Nc1nc(-c2ccccc2)ns1)N1CCC(CO)CC1 | 9.11
* Cc1cccc(CNC(CN2CCN(C)CC2)c2ccccc2)c1 (stereo not drawn) | -3.61
* CC(=O)N1CCCC1c1nccnc1Nc1ncccn1 (stereo not drawn) | -1.2
* O=c1[nH]cc(Nc2ccc(Cl)cc2)c(=O)[nH]1 | 18.4
* Cc1ccc(S(=O)(=O)NCCNC(=O)c2cncnc2C)cc1 | -1.51
* CCn1c(NCc2ccccc2)nc2c(C)nn(C)c2c1=O | 10.6
* OCC1(CC2CCCCO2)CCN(c2cnc3ccccc3n2)CC1 (stereo not drawn) | 21.1
* Cn1cccc1-c1cc(C(=O)N2CC(c3cccnc3)C2)[nH]n1 | -13.7
* CCn1cc(CN2C[C@@H]3CC[C@H]2CN(C(=O)c2cnccn2)C3)cn1 | -8.39
* C[C@@H]1CN(c2ccc(Cl)cn2)C[C@]1(C)O | 4.38
* COc1ccccc1CN1CC[C@]2(C[C@H](OC)CO2)C1 | -11.1
* Cc1ncc(Cl)c(C(=O)N2CC(=O)N(C)c3ccccc32)n1 | 5.35
* COCC(NC(=O)c1cc(NC(C)=O)ccc1Cl)c1ccccn1 (stereo not drawn) | -12.1
